Where do these numbers come from? They come from patent US6355799B1.

# Tested on: upland rice (Oryza sp., var. Tebonnet, RICE)
# ASSAY DETAILS: Post-emerge test, crop safety
# Assay type: in vivo
# EXPERIMENTAL PARAMETERS: post-emerge, 250 g ai/ha, 14 days after application, rating scale 0-100
For each entry below, report its phytotoxicity rating RICE (crop damage) value.
The answer should be a number; do not append a unit.

Read off the recorded phytotoxicity rating RICE (crop damage) for Cn1c(C(F)(F)F)cc(=O)n(-c2ccc(C(N)=S)cc2NC(=O)c2ccc3ccccc3c2)c1=O
30

Read off the recorded phytotoxicity rating RICE (crop damage) for Cn1c(C(F)(F)F)cc(=O)n(-c2c(F)cc(Cl)c(O)c2NC(=O)c2ccc3ccccc3c2)c1=O
40

Read off the recorded phytotoxicity rating RICE (crop damage) for COc1c(Cl)cc(F)c(-n2c(=O)cc(C(F)(F)F)n(C)c2=O)c1NC(=O)OCc1ccc(Cl)c(Cl)c1
40

Read off the recorded phytotoxicity rating RICE (crop damage) for COC(=O)Nc1c(OC)c(Cl)cc(F)c1-n1c(=O)cc(C(F)(F)F)n(C)c1=O
50

Read off the recorded phytotoxicity rating RICE (crop damage) for CC(C)Oc1c(Cl)cc(F)c(-n2c(=O)cc(C(F)(F)F)n(C)c2=O)c1NC(=O)c1ccc2ccccc2c1
30

Read off the recorded phytotoxicity rating RICE (crop damage) for COc1c(Cl)cc(F)c(-n2c(=O)cc(C(F)(F)F)n(C)c2=O)c1NC(=O)OCc1cc(C)ccc1C
50

Read off the recorded phytotoxicity rating RICE (crop damage) for COc1c(Cl)cc(F)c(-n2c(=O)cc(C(F)(F)F)n(C)c2=O)c1NC(=O)Oc1ccccc1C(C)(C)C
10

Read off the recorded phytotoxicity rating RICE (crop damage) for COc1c(Cl)cc(F)c(-n2c(=O)cc(C(F)(F)F)n(C)c2=O)c1NC(=O)OC(C)c1ccccc1 (stereo not drawn)
60

Read off the recorded phytotoxicity rating RICE (crop damage) for COc1c(Cl)cc(F)c(-n2c(=O)cc(C(F)(F)F)n(C)c2=O)c1NC(=O)OCc1c(F)c(F)c(F)c(F)c1F
80

Read off the recorded phytotoxicity rating RICE (crop damage) for Cn1c(C(F)(F)F)cc(=O)n(-c2ccc(OC(F)(F)F)cc2NC(=O)c2ccc3ccccc3c2)c1=O
30

Read off the recorded phytotoxicity rating RICE (crop damage) for Cc1ccc(OC(=O)Nc2c(C)c(Cl)cc(F)c2-n2c(=O)cc(C(F)(F)F)n(C)c2=O)cc1C
65

Read off the recorded phytotoxicity rating RICE (crop damage) for COc1c(Cl)cc(F)c(-n2c(=O)cc(C(F)(F)F)n(C)c2=O)c1NC(=O)OCc1ccccc1[N+](=O)[O-]
80

Read off the recorded phytotoxicity rating RICE (crop damage) for CCc1ccc(COC(=O)Nc2c(OC)c(Cl)cc(F)c2-n2c(=O)cc(C(F)(F)F)n(C)c2=O)cc1
40

Read off the recorded phytotoxicity rating RICE (crop damage) for Cn1c(C(F)(F)F)cc(=O)n(-c2c(F)cc(Cl)c(OCC#N)c2NC(=O)c2ccc3ccccc3c2)c1=O
20

Read off the recorded phytotoxicity rating RICE (crop damage) for COc1c(Cl)cc(F)c(-n2c(=O)cc(C(F)(F)F)n(C)c2=O)c1NC(=O)OCc1c(Cl)cccc1Cl
45

Read off the recorded phytotoxicity rating RICE (crop damage) for COC(=O)N(C(=O)OC)c1c(OC)c(Cl)cc(F)c1-n1c(=O)cc(C(F)(F)F)n(C)c1=O
30

Read off the recorded phytotoxicity rating RICE (crop damage) for COc1c(Cl)cc(F)c(-n2c(=O)cc(C(F)(F)F)n(C)c2=O)c1NC(=O)Nc1ccccc1
10

Read off the recorded phytotoxicity rating RICE (crop damage) for COc1c(Cl)cc(F)c(-n2c(=O)cc(C(F)(F)F)n(C)c2=O)c1NC(=O)OCc1ccc(F)cc1
90

Read off the recorded phytotoxicity rating RICE (crop damage) for Cn1c(C(F)(F)F)cc(=O)n(-c2ccc(Cl)cc2NC(=O)C2CC2)c1=O
30

Read off the recorded phytotoxicity rating RICE (crop damage) for Cc1ccccc1COC(=O)Nc1c(C)c(Cl)cc(F)c1-n1c(=O)cc(C(F)(F)F)n(C)c1=O
85

Read off the recorded phytotoxicity rating RICE (crop damage) for COc1c(Cl)cc(F)c(-n2c(=O)cc(C(F)(F)F)n(C)c2=O)c1NC(=O)OCc1ccccn1
100
